Origin of measurements: ChEMBL document CHEMBL1125700

- assay-system: D(1A) dopamine receptor (Homo sapiens, UniProt P21728)
- Sequence (P21728 whole entry): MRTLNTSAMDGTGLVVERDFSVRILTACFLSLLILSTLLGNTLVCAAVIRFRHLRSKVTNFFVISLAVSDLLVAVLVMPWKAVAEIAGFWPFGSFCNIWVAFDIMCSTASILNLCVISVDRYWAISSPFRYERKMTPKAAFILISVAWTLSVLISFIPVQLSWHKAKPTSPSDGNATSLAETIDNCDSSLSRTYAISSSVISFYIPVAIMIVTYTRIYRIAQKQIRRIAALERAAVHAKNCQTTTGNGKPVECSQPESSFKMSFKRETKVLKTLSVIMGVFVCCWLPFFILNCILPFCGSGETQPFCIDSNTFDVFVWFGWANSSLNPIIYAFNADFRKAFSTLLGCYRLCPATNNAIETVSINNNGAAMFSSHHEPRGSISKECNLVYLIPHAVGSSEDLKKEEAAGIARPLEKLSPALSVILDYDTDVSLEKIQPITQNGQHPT
- experiment: Binding affinity determined in radioreceptor binding assay by using [3H]SCH-23390 radioligand against dopamine receptor D1
value-type: Ki (nM)

>  <molecule>
CN(C)C1C=CC2(CC1)c1ccccc1C=Cc1ccc(Cl)cc12 (stereo unspecified)

>  <meas-value>
0.3

$$$$

---

- assay-system: Sigma non-opioid intracellular receptor 1 (Homo sapiens)
- Sequence (Q99720 whole entry): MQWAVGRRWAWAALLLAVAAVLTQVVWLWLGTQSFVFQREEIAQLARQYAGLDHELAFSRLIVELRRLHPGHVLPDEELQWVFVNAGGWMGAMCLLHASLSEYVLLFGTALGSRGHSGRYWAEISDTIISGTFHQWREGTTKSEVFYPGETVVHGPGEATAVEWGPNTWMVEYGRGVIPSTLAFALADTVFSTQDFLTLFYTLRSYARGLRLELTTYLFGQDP
- experiment: The compound was tested for binding affinity against Sigma opioid receptor using DTG as radioligand

>  <compound>
CN(C)C1C=CC2(CC1)c1ccccc1C=Cc1ccc(Cl)cc12 (single isomer, unassigned; enantiomer 2)

>  <measure-unit>
nM

>  <Ki>
800

$$$$

---

- assay-system: UniProt:P35348
- Sequence (P35348 whole entry): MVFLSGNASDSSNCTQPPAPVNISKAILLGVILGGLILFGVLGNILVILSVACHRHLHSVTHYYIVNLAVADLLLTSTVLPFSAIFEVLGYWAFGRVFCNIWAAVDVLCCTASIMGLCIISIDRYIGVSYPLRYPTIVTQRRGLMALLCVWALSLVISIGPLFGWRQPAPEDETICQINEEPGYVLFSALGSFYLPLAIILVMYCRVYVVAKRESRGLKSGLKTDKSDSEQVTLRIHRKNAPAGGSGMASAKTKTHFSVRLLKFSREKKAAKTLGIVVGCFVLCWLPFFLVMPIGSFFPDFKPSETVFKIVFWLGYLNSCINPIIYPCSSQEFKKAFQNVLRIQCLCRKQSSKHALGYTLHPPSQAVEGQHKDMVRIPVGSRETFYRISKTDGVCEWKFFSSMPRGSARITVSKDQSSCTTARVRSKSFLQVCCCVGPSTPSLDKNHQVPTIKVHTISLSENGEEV
- experiment: The compound was tested for binding affinity against Alpha-1 adrenergic receptor using WB-4101 as radioligand
pKi: −log10 of the molar value.
value-type: pKi

>  <molecule>
CN(C)C1C=CC2(CC1)c1ccccc1C=Cc1ccc(Cl)cc12 (single isomer, unassigned; enantiomer 2)

>  <meas-value>
7.21

$$$$

---

- assay-system: D(2) dopamine receptor (Homo sapiens)
- Sequence (P14416 whole entry): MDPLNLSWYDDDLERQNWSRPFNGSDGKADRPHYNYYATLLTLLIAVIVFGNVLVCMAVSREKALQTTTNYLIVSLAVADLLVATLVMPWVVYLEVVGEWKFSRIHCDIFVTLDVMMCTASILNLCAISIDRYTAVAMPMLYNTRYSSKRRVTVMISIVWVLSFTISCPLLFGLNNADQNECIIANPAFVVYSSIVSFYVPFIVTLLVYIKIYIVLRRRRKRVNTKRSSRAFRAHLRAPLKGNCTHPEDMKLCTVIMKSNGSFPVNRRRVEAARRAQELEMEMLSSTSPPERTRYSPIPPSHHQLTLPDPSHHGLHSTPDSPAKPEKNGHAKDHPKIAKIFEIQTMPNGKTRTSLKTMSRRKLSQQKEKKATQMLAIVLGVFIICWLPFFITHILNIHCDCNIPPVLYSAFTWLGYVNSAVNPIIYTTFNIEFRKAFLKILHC
- experiment: The compound was tested for binding affinity against dopamine receptor D2 using raclopride as radioligand
pKi: −log10 of the molar value.

>  <compound>
CN(C)C1C=CC2(CC1)c1ccccc1C=Cc1ccc(Cl)cc12 (stereo unspecified)

>  <pKi>
9.18

$$$$

---

- assay-system: UniProtKB P14416
- experiment: The compound was tested for binding affinity against Dopamine receptor D2 using raclopride as radioligand
pKi: −log10 of the molar value.

>  <compound>
CN(C)C1C=CC2(CC1)c1ccccc1C=Cc1ccc(Cl)cc12 (single isomer, unassigned; enantiomer 2)

>  <pKi>
8.19

$$$$

---

- assay-system: UniProt P21728
- experiment: The compound was tested for binding affinity against Dopamine receptor D1 using SCH-23390 as radioligand
pKi: −log10 of the molar value.

>  <compound>
CN(C)C1C=CC2(CC1)c1ccccc1C=Cc1ccc(Cl)cc12 (single isomer, unassigned; enantiomer 2)

>  <pKi>
8.51

$$$$
